Tested on: human hepatocellular carcinoma cell line SNU398
protocol details: Caspase cascade activation (Ac-DEVD-R110 fluorogenic substrate) in SNU398 cells
Assay type: cell-based
experimental setup: SNU-398, 24 h assay (Table II), read-out: Caspase Activation Potency EC50 (24 h) SNU398
pEC50: −log10 of the molar value.
# pEC50 per entry

Solved entries (count: 3):
[[record]]
structure_notation = "COc1cc(Nc2nc(SC)nc3c2COC3)cc(OC)c1"
quantity_measured = "pEC50"
endpoint_value = "< 5.00"

[[record]]
structure_notation = "COc1ccc(OC)c(Nc2ncnc3c2CCC3)c1"
quantity_measured = "pEC50"
endpoint_value = "< 5.00"

[[record]]
structure_notation = "COc1ccc(N(C)c2nc(SC)nc3c2CCC3)cc1"
quantity_measured = "pEC50"
endpoint_value = 7.46


Now let's try a different one.
According to the records, this compound COc1ccc(OC)c(Nc2nc(SC)nc3c2CCC3)c1 displays pEC50 of < 5.00
